For each record, write down the corresponding abundance fitness.
B1: Calcium-binding protein 2, residues 155 to 219; numbered along this chain, Q9NPB3 (parent)
chain: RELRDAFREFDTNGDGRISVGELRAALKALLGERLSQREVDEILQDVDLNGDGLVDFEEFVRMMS

# Variants of: B1
# test protocol: abundance fitness (aPCA) (normalised: wild type 0, dead -1); higher = more abundant; growth selection in yeast, the domain comes from the species named
# particulars: Homo sapiens
// print number alone

input: Which abundance fitness reading was recorded for the variant RELRDAFREFDTNGDGRISVGELRVALKALLGERLSQREVDEILQDVDLNGDGLVDFEEFVRMMS [A25V] ?
output: -0.035

input: Which abundance fitness reading was recorded for the variant RELRDAFREFDTNGDGRISVGELRAALKALLGERLSQREVDDILQDVDLNGDGLVDFEEFVRMMS [E42D] ?
output: -0.166

input: Which abundance fitness reading was recorded for the variant RELRDAFREFDTNGDGRISVGELRAALKALLGERISQREVDEILQDVDLNGDGLVDFEEFVRMMS [L35I] ?
output: 0.087

input: Which abundance fitness reading was recorded for the variant RELRDAFREFDTNGDGRISVTELRAALKALLGERLSQREVDEILQDVDLNGDGLVDFEEFVRMMS [G21T] ?
output: 0.01

input: Which abundance fitness reading was recorded for the variant RELRDAFREFDTNGDGRISVGELRAALKALLGERLSQREVDEILQDVDLNGDSLVDFEEFVRMMS [G53S] ?
output: -0.05

input: Which abundance fitness reading was recorded for the variant RELRDAFREFDTNGDGRISVGELRAALKALLGERLSQREVDEILQDVDLNGDGLVEFEEFVRMMS [D56E] ?
output: 0.12

input: Which abundance fitness reading was recorded for the variant RELRDAFREFDTNGDGRISVGELRAALKALLGERLSQREVDEILQDVDLNGDGLRDFEEFVRMMS [V55R] ?
output: -0.78

input: Which abundance fitness reading was recorded for the variant RELRDAFREFDTNGDGRISGGELRAALKALLGERLSQREVDEILQDVDLNGDGLVDFEEFVRMMS [V20G] ?
output: 0.004

input: Which abundance fitness reading was recorded for the variant RELRDAFREFDTNGDGRISVGELRAALAALLGERLSQREVDEILQDVDLNGDGLVDFEEFVRMMS [K28A] ?
output: 0.127

input: Which abundance fitness reading was recorded for the variant RELRDAFREFDTNGDGRISVGELRAALKALLGERLSQREVDEILQDVDLCGDGLVDFEEFVRMMS [N50C] ?
output: 0.032

input: Which abundance fitness reading was recorded for the variant RELRDAFREFDTNGDGRISVGELRAALKARLGERLSQREVDEILQDVDLNGDGLVDFEEFVRMMS [L30R] ?
output: 0.069

input: Which abundance fitness reading was recorded for the variant RELRDAFREFDTNGDGRISVGELRAALKALLGERLSQREVDEILWDVDLNGDGLVDFEEFVRMMS [Q45W] ?
output: -0.109

input: Which abundance fitness reading was recorded for the variant RELRDAFREFDTNGDGRISVGELRAALKALLGERLSQREVDEILQDVDLNGDGLVDFEEFTRMMS [V61T] ?
output: -0.044

input: Which abundance fitness reading was recorded for the variant RELRDAFREFDTNGDGRISVGELRAALKALLGERLSQREVDEILQDVDLNGDGLVKFEEFVRMMS [D56K] ?
output: -0.103

input: Which abundance fitness reading was recorded for the variant RELRDAFREFDTNGDGRISVGELRAALKALLGERLSQREVDEILQDVDLNGDGLVDFEEFSRMMS [V61S] ?
output: 0.128

input: Which abundance fitness reading was recorded for the variant RELRDAFREFDTNGDGRISVGETRAALKALLGERLSQREVDEILQDVDLNGDGLVDFEEFVRMMS [L23T] ?
output: -0.023

input: Which abundance fitness reading was recorded for the variant RTLRDAFREFDTNGDGRISVGELRAALKALLGERLSQREVDEILQDVDLNGDGLVDFEEFVRMMS [E2T] ?
output: -0.093

input: Which abundance fitness reading was recorded for the variant RELRDAFREFDTNGDGRISVGELRAALKALLGERLSQREVDEILQDVDLNGDGLVDFEEMVRMMS [F60M] ?
output: -0.116

input: Which abundance fitness reading was recorded for the variant RELRDAFREFDTNGDGRISVGELRAALKALLGERLSQREVDMILQDVDLNGDGLVDFEEFVRMMS [E42M] ?
output: -0.143

input: Which abundance fitness reading was recorded for the variant RELRDAFREFDTNGDGRISVGELRAALKACLGERLSQREVDEILQDVDLNGDGLVDFEEFVRMMS [L30C] ?
output: 0.057

input: Which abundance fitness reading was recorded for the variant RELRDAFREFDTEGDGRISVGELRAALKALLGERLSQREVDEILQDVDLNGDGLVDFEEFVRMMS [N13E] ?
output: -0.459

input: Which abundance fitness reading was recorded for the variant RELRDAFREFDTNGDGRISVGELRAALKALLGERLSQREVDEALQDVDLNGDGLVDFEEFVRMMS [I43A] ?
output: 0.254

input: Which abundance fitness reading was recorded for the variant RELRDAFREFDTNGDGRISVGELRAALKALLGERLSQREVDEILQDVDLNGDGLVDFEELVRMMS [F60L] ?
output: -0.228

input: Which abundance fitness reading was recorded for the variant RELRDAFREFDTNGDGRISVGELRAALKALLGERLSQREVDEILQDCDLNGDGLVDFEEFVRMMS [V47C] ?
output: -0.241

input: Which abundance fitness reading was recorded for the variant REARDAFREFDTNGDGRISVGELRAALKALLGERLSQREVDEILQDVDLNGDGLVDFEEFVRMMS [L3A] ?
output: -0.302

input: Which abundance fitness reading was recorded for the variant RDLRDAFREFDTNGDGRISVGELRAALKALLGERLSQREVDEILQDVDLNGDGLVDFEEFVRMMS [E2D] ?
output: -0.677
